# Test system: citrated sheep plasma
# PROCEDURE_SUMMARY: In vitro anti-coagulant activity (AC): clotting of recalcified citrated sheep plasma with sheep RBC
# Type: biochemical
# REPORTED_CONDITIONS: Table I; two-fold serial dilution, higher well number indicates higher activity; sodium heparin positive control
ATTRIBUTE_MEASURED: AC Wells (Wells)
Please give a number only; it is taken to be in Wells.

State its AC Wells on citrated sheep plasma: O=C(O)c1cc(NS(=O)(=O)c2cc(S(=O)(=O)Nc3cc(C(=O)O)cc(C(=O)O)c3)cc(S(=O)(=O)Nc3cc(C(=O)O)cc(C(=O)O)c3)c2)cc(C(=O)O)c1 [5,5',5"-[s-Phenenyltris(sulfonylimino)]tri-isophthalic acid ]
-1

State its AC Wells on citrated sheep plasma: `O=C(O)c1cc(NS(=O)(=O)c2cc(S(=O)(=O)Nc3ccc(O)c(C(=O)O)c3)cc(S(=O)(=O)Nc3ccc(O)c(C(=O)O)c3)c2)ccc1O`
-2

State its AC Wells on citrated sheep plasma: `O=C(O)c1cc(NS(=O)(=O)c2cc(S(=O)(=O)Nc3cc(C(=O)O)c(O)c(C(=O)O)c3)cc(S(=O)(=O)Nc3cc(C(=O)O)c(O)c(C(=O)O)c3)c2)cc(C(=O)O)c1O`
-1

State its AC Wells on citrated sheep plasma: `COC(=O)c1cc(NS(=O)(=O)c2cc(S(=O)(=O)Nc3cc(C(=O)OC)c(O)c(C(=O)OC)c3)cc(S(=O)(=O)Nc3cc(C(=O)OC)c(O)c(C(=O)OC)c3)c2)cc(C(=O)OC)c1O`
-1
